DETAILS: in 1,1,2-trichloroethane, 318.15 K
REPORTED_METRIC: solubility (mole fraction)
Give the value as a plain number.

Give me measured solubility (mole fraction), please, for this molecule: C1CC1N1C2C3N(C4CC4)C1C1N(C4CC4)C(C(N1C1CC1)N3C1CC1)N2C1CC1
0.0234

---

DETAILS: in n-hexane, 308.15 K
REPORTED_METRIC: solubility (mole fraction)
Give the value as a plain number.

Give me measured solubility (mole fraction), please, for this compound: C1CC1N1C2C3N(C4CC4)C1C1N(C4CC4)C(C(N1C1CC1)N3C1CC1)N2C1CC1
0.00973
